This collection of values is drawn from patent US20230340106A1.

In this section, each of the binders is paired with its reported pKd.
target: T1, human IL-2 (recombinant IL-2, Humanzyme) (human, UniProt P60568 21-153); experiment: SPR (Biacore T200), IgG captured by anti-human IgG, IL-2 injected, 25 C, 1:1 Langmuir fit
T1 construct: It may include the signal peptide; also called hIL-2; interleukin-2
T1 sequence (P60568 21-153 limits assumed): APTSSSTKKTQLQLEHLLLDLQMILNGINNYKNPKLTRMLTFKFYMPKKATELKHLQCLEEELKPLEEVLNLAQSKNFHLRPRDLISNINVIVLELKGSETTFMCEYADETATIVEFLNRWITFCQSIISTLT
pKd here is simply -log10 of the concentration when that concentration is written in mol/L.

Req: Item 16C3 (antibody, V domains shown) VH: QVQLVQSGGGVVQPGRSLRLSCAASGFTFSNYAMNWVRQAPGKGLEWVTLISYDGSQKYYADSVKGRFTTSRDNSKNTLYLQMNSLRAEDTAVYYCARDSTTLGAFDVWGQGTMVTVSS VL: SYELTQPPSLSVSPGQTATISCSGDAFPRKFAYWYQQKSGQAPVLVIYEDTRRPSGIPERFSGSSSGTMATLTISGAQVEDEADYFCYSTDTTGTHRVFGGGTKLTVL has what recorded pKd?
Resp: 9.20

Req: Quick check: pKd of d1C7 (antibody, V domains shown, Only the variable domains are tied to the clone; also called clone d1C7) VH: QVQLVQSGAEVKKPGSSVKVSCKASGGTFSSYAISWVRQAPGQGLEWMGGIIPIFGTANYAQKFQGRVTITADESTSTAYMELSSLRSEDTAVYYCARVDRYYNWNYFLGSFDYWGQGTLVTVSS VL: SYVLTQPPSVSVAPGKTARITCGGNNIRSKSVHWYQQKPGQAPVVVIYYDSDRPSGIPERISGSNSGNTATLTISRVEAGDEADYFCQVWDSSSDHHVFGGGTKLTVL ?
Resp: 9.27

Req: Requested field: pKd. Item: F4.7.6 (antibody, V domains shown) VH: EVQLQESGPGLVKPSQTLSLTCTVSGGSISSGGYYWSWIRQHPGKGLEWIGYIYYSGSTYYNPSLKSRVTISVDTSKNQFSLKLSSVTAADTAVYYCARTPTVTGDWFDPWGQGTLVTVSS VL: NFMLTQPHSVSESPGKTVTISCTRSSGSIASNYVQWYQQRPGSSPTTVIYEDNQRPSGVPDRFSGSIDSSSNSASLTISGLKTEDEADYYCQSYDSSTVVFGGGTKLTVL
Resp: 8.52

Req: Please give the measured pKd for this binder: F5.1.11 (antibody, V domains shown) VH: QLQLQESGPGLVKPSQTLSLTCTVSGGSISSGGYYWSWIRQHPGKGLEWIGYIYYSGSTYYNPSLKSRVTISVDTSKNQFSLKLSSVTAADTAVYYCARTPTVTGDWFDPWGRGTLVTVSS VL: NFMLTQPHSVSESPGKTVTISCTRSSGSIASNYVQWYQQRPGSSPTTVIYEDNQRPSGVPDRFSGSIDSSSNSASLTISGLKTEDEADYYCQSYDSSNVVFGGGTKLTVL
Resp: 8.51

Others:
Req: pKd for F4.7.062 (antibody, V domains shown) VH: QVQLQESGPGLVKPSQTLSLTCTVSGGSISSGGYYWSWIRQHPGKGLEWIGYIYYSGSTYYNPSLKSRVTISVDTSKNQFSLKLSSVTAADTAVYYCARTPTVTGDWFDPWGQGTLVTVSS VL: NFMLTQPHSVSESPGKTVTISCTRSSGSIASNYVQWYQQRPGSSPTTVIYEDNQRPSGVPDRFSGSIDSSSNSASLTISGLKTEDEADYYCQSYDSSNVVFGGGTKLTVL ?
Resp: 8.81
